So I've got a bunch of binders here, and I need their Apical domain:HSA values.
- target-desc: apical domain of CD71 (Screen 3: 'cynomolgus apical domain of human CD71') (cynomolgus (as paragraph 454 words it; ambiguous))
- assay: primary ELISA, RLU ratio to HSA
# output: bare number, no unit

Looking for the measured Apical domain:HSA of CD71-binding FN3 domain SEQ ID NO: 313 (designed binder) MSLPAPKNLVVSRVTEDSARLSWTAPDAAFDSFEIAYFENDWAGEAIVLTIPGSERSYDLTGLKPGTEYWVQIGGVKGGNWSAPLSAIFTT , can you help?
835

Next record, please: CD71-binding FN3 domain SEQ ID NO: 325 (designed binder) MSLPAPKNLVVSRVTEDSARLSWTAPDAAFDSFEIGYFENLYLGEAIVLTVPGSERSYDLTGLKPGTEYWVQIGGVKGGNWSAPLSEIFTT
205
